Where do the numbers come from? From patent US20230293599A1.

# Test system: R. dentocariosa
# Measurement Protocol: Biolog Phenotype Microarray PM1-2 growth on carbon sources
# Format: cell-based, Rothia dentocariosa
# Study Conditions: 35 hours, absorbance 590 nm, n = 1; cells without values AUC < 50
Readout Name: AUC of growth curve, R. dentocariosa

- O=C(CO)[C@@H](O[C@H]1O[C@H](CO)[C@@H](O)[C@H](O)[C@H]1O)[C@H](O)[C@H](O)CO: 296.1
- C/C=C/C=C/C(=O)O: 82.4
- OC[C@H]1O[C@@H](Oc2ccc(O)cc2)[C@H](O)[C@@H](O)[C@@H]1O: 55.2
- COC(=O)C(C)=O [Methyl Pyruvate]: 74.1
- CC(=O)CC(=O)O: 229.8
- CC(=O)C(=O)O: 343.3

Tell me reported AUC of growth curve, R. dentocariosa for O=C(O)/C=C/C(=O)O , tested with R. dentocariosa. 202.9

Also need OC[C@H]1O[C@@](CO)(O[C@H]2O[C@H](CO)[C@@H](O)[C@H](O)[C@H]2O)[C@@H](O[C@H]2O[C@H](CO)[C@@H](O)[C@H](O)[C@H]2O)[C@@H]1O , thanks. 57.2

###

# System: R. gilardii
# Measurement Protocol: Biolog Phenotype Microarray PM1-2 growth on carbon sources
# Type: cell-based, Roseomonas gilardii
# Protocol: Using Phenotype Microarray (PM) panels (Biolog), the influence of 190 carbon sources on the growth of the potential probiotic species R. mucilaginosa, R. dentocariosa, R. gilardii, G. haemolysans, and common respiratory pathogens P. aeruginosa, and S. aureus was determined. PM1 and PM2 panels (Biolog) were inoculated according to the manufacturer's instructions. Growth curves were generated for 35 hours by measuring the absorbance at 590 nm using an EnVision (Perkin Elmer) plate reader.
Residues, ends and D or L forms follow the SMILES beside them.
Threshold check on AUC of growth curve, R. gilardii: strictly below 200 is fulfilled; on or above 200 is not fulfilled.

Example entries begin here.
- O=C1O[C@H]([C@@H](O)CO)[C@@H](O)[C@@H]1O [L-Galactonic Acid γ-Lactone]: not fulfilled
- C[C@H](N)C(=O)NCC(=O)O [L-Alanyl-Glycine] (H-Ala-Gly-OH): fulfilled
- O=C(CO)[C@@H](O)[C@@H](O)[C@H](O)CO [D-Tagatose]: fulfilled
- O=C(CO)[C@@H](O)[C@H](O)[C@@H](O)C(=O)O [5-Keto-D-Gluconic Acid]: not fulfilled
- O=C(CO)[C@@H](O)[C@H](O)[C@H](O)CO [D-Fructose]: not fulfilled

# check: AUC of growth curve, R. gilardii < 200 for O=C(CO)[C@H](O)[C@H](O)[C@H](O)CO [D-Psicose] fulfilled

Lookup O=C(O)C(=O)C(C(=O)O)C(O)C(=O)O (centres unmarked) [Oxalomalic Acid] not fulfilled

Cool, now NCC(=O)N[C@@H](CCC(=O)O)C(=O)O [Glycyl-L-Glutamic Acid] (H-Gly-Glu-OH) fulfilled

###

# Tested on: R. dentocariosa
# Measurement Protocol: Biolog Phenotype Microarray PM1-2 growth on carbon sources
# Type: cell-based, Rothia dentocariosa
# Study Conditions: 35 hours, absorbance 590 nm, n = 1; cells without values AUC < 50
Overview of recorded AUC of growth curve, R. dentocariosa for various compounds
Give only the figure.

In the examples that follow, each entry is paired with its recorded AUC of growth curve, R. dentocariosa.
* OCC(O)CO | 998.9
* O=CC[C@H](O)[C@H](O)CO | 376.6
* OC[C@H]1O[C@H](OC[C@H]2OC(O)(CO)[C@@H](O)[C@@H]2O)[C@H](O)[C@@H](O)[C@@H]1O (stereo partly shown) | 197.4
* O=C[C@H](O)[C@@H](O)[C@@H](O)[C@H](O)C(=O)O | 57.0
* O=P(O)(O)OCC(O)CO (racemic) [D,L-α-Glycerol-Phosphate] | 271.8

API: value(readout=AUC of growth curve, R. dentocariosa, system=R. dentocariosa) for record OC[C@H]1O[C@H](OCC2O[C@@H](O)[C@H](O)[C@@H](O)[C@@H]2O)[C@H](O)[C@@H](O)[C@H]1O (stereo partly shown) 249.8

Proceed to OCc1ccccc1O[C@@H]1O[C@H](CO)[C@@H](O)[C@H](O)[C@H]1O 222.9

Now this one: C[C@H](O)C(=O)O 632.8

Please give the result for O=C(CO)[C@@H](O)[C@H](O)[C@H](O)COP(=O)(O)O [D-Fructose-6-Phosphate] too. 87.1

Note, next up: O=C[C@H](O)[C@H](O)[C@H](O)CO 431.1
